# Test system: 817829-284-R-J1-PDC complex spheroid viability;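 note: spheroids exposed to compounds for 7 days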
# run_description: Anticancer human tumor 817829-284-R-J1-PDC patient-derived colon adenocarcinoma cell line growth inhibition [POLQ]
# cond: curve of first compound; second compound 0.316 µM
Attribute: pIC50
To interpret pIC50, take it as minus log10 of a concentration measured in moles per litre.

molecule	assayed_system	pIC50
CC1COCCN1c1cc(-c2ccnn2C)c2ccnc(-c3ccn[nH]3)c2n1 (configuration not stated) + Nc1ccc(C#CCN(C(=O)Cc2ncc(C(F)(F)F)cc2C(F)(F)F)c2ccc(F)cc2)nn1	817829-284-R-J1-PDC complex spheroid viability	7.38

Problem: I am curious: what pIC50 value has been reported for Cn1ncnc1[C@H]1c2n[nH]c(=O)c3cc(F)cc(c23)N[C@@H]1c1ccc(F)cc1 + Nc1ccc(C#CCN(C(=O)Cc2ncc(C(F)(F)F)cc2C(F)(F)F)c2ccc(F)cc2)nn1 ?
Result: 7.67

Problem: Field entry: CCCS(=O)(=O)Nc1ccc(F)c(C(=O)c2c[nH]c3ncc(-c4ccc(Cl)cc4)cc23)c1F + COC1C(OC(N)=O)C(O)C(Oc2ccc3c(O)c(NC(=O)c4ccc(O)c(CC=C(C)C)c4)c(=O)oc3c2C)OC1(C)C
Result: 5.36

Problem: Field entry: C=CCn1c(=O)c2cnc(Nc3ccc(N4CCN(C)CC4)cc3)nc2n1-c1cccc(C(C)(C)O)n1 + Nc1ccc(C#CCN(C(=O)Cc2ncc(C(F)(F)F)cc2C(F)(F)F)c2ccc(F)cc2)nn1
Result: 6.67

Problem: Field entry: COc1cc(C2c3cc4c(cc3C(OC3OC5COC(C)OC5C(O)C3O)C3COC(=O)C23)OCO4)cc(OC)c1O (configuration not stated) + Cc1cccc(N(C)C(=O)C2C(O)CCN2c2nc(C)cc(C(F)(F)F)c2C#N)c1
Result: 7.14

Problem: Field entry: CCc1cc2c(N3CCc4c(cc(Cn5ccnc5)cc4-c4cn(C)nc4C(F)(F)F)C3=O)cc(C)nc2c(OC)n1 + Nc1ccc(C#CCN(C(=O)Cc2ncc(C(F)(F)F)cc2C(F)(F)F)c2ccc(F)cc2)nn1
Result: 5.78

Problem: Field entry: CC1COCCN1c1cc(C2(S(C)(=N)=O)CC2)nc(-c2ccnc3[nH]ccc23)n1 (configuration not stated) + Nc1ccc(C#CCN(C(=O)Cc2ncc(C(F)(F)F)cc2C(F)(F)F)c2ccc(F)cc2)nn1
Result: 6.39
